- test.details: Cytotoxicity on primary cell culture (flow cytometry, PI)
- Type: cell-based
- condition.details: Balb/c, mouse, primary splenocytes (spleen cells), ± SD, read-out: Cytotoxic activity on spleen cells (CC50)
observation.type: CC50 (µM)
Write the number in µM without appending the unit.

1. C=C(C(=O)N(c1ccccc1)C(C)(C)C(=O)NC(C)(C)C)C1CCC2(C)CCCC(C)(O)C2C1 (stereo not shown) [Compound 10]	78.2

[ask] Query: CC50; subject: C=C(C(=O)N(Cc1ccccc1)C(C)(C)C(=O)NC1CCCCC1)C1CCC2(C)CCCC(C)(O)C2C1 (stereo not shown) [Compound 15]
[reply] 21.5

[ask] And for C=C(C(=O)N(Cc1ccccc1)C(C)(C)C(=O)NCc1ccccc1)C1CCC2(C)CCCC(C)(O)C2C1 (stereo not shown) [Compound 13] ?
[reply] 27.4

[ask] Next compound: C=C(C(=O)N(Cc1ccccc1)C(C)(C)C(=O)NC(C)(C)C)C1CCC2(C)CCCC(C)(O)C2C1 (stereo not shown) [Compound 11]
[reply] 334

====

Reported Selectivity index (SI) on tumor cells by item:
- System: WiDr
- test.details: Antiproliferative SRB assay (NCI protocol), WiDr
- Assay type: cell-based, human
- condition.details: CC50 splenocytes / GI50 WiDr
- Protocol: In vitro antiproliferative activity was evaluated using the protocol of the National Cancer Institute (NCI) after 48 h of drug exposure using the sulforhodamine B (SRB) assay. The following human solid tumor cell lines were used in this study: HBL-100 (breast), HeLa (cervix), SW1573 (non-small cell lung), T-47D (breast), A549 (lung), and WiDr (colon). […] Single cell suspensions displaying > 97% viability by trypan blue dye exclusion test were subsequently counted. […]

Completed entries (count: 2):
1. C=C(Cn1cc(Cc2ccccc2)nn1)[C@@H]1CC[C@@]2(C)CCC[C@@](C)(O)C2C1 (stereo partly drawn) [Compound 18]	1.6
2. C=C(C(=O)N(Cc1ccccc1)C(C)(C)C(=O)NC1CCCCC1)[C@@H]1CCC2=CC(=O)C[C@H](C)[C@@]2(C)C1 [Compound 9]	2.0

[ask] Entry C=C(C(=O)N(c1ccccc1)C(C)(C)C(=O)NCc1ccccc1)C1CCC2(C)CCCC(C)(O)C2C1 (stereo not drawn) [Compound 12] : reported Selectivity index (SI) on tumor cells = ?
[reply] 2.7

====

- Tested on: WiDr
- test.details: Antiproliferative SRB assay (NCI protocol), WiDr
- Assay type: cell-based, human
- condition.details: CC50 splenocytes / GI50 WiDr
observation.type: Selectivity index (SI) on tumor cells
Provide a numeric answer; units are not to be included.

Study these solved cases before continuing.
1) C=C(C(=O)N(Cc1ccccc1)C(C)(C)C(=O)NC(C)(C)C)C1CCC2(C)CCCC(C)(O)C2C1 (stereo not shown)	11.5
2) C=C(C(=O)N(c1ccccc1)C(C)(C)C(=O)NC1CCCCC1)[C@@H]1CCC2=CC(=O)C[C@H](C)[C@@]2(C)C1	0.7
3) C=C(Cn1cc(CCCCCCCCCC)nn1)[C@@H]1CC[C@@]2(C)CCC[C@@](C)(O)C2C1 (stereo partly shown)	6.8

Here is the next item to consider.
[ask] Query: Selectivity index (SI) on tumor cells; subject: C=C(C(=O)N(Cc1ccccc1)C(C)(C)C(=O)NC1CCCCC1)C1CCC2(C)CCCC(C)(O)C2C1 (stereo not shown)
[reply] 1.7
